# IC50 listing for each entry below
- System: human lung cancer cell lines (NCI-H226)
- test-description: MTT cytotoxicity assay, NCI-H226
- Assay type: cell-based
- test-conditions: Homo sapiens, read-out: IC50 (concentration of 50% proliferation-inhibitory effect) NCI-H226; NCI-H226 cells, 48 h treatment, MTT; mean of three independent experiments

Below, each entry is followed by its recorded IC50 result.
COC(=O)c1ccc(-c2nn(Cc3ccccc3)c3[se]ccc23)o1 :: > 100 µM
O=C(O)CCC(=O)OCc1ccc(-c2nn(Cc3ccccc3)c3cc[se]c23)o1 :: 2.2 µM
COC(=O)c1ccc(-c2nn(-c3ccccc3OC)c3cc[se]c23)o1 :: > 100 µM
COC(=O)c1ccc(-c2nn(-c3ccccc3Cl)c3cc[se]c23)o1 :: > 100 µM

[Q] Suppose we examine the compound `COC(=O)c1ccc(-c2nn(-c3ccccc3)c3[se]ccc23)o1` ; what IC50 value has been reported?
[A] > 100 µM

[Q] Any idea what its IC50 is? The compound is `OCc1ccc(-c2nn(Cc3ccccc3)c3cc[se]c23)o1`
[A] 1.4 µM

[Q] Record request: IC50 value, item `Cc1cccc(-n2nc(-c3ccc(CO)o3)c3[se]ccc32)c1`
[A] 25 µM

[Q] Data request, read-out IC50, for `COC(=O)c1ccc(-c2nn(-c3ccc(F)cc3)c3cc[se]c23)o1`
[A] > 100 µM

[Q] Record request: IC50 value, item `COC(=O)c1ccc(-c2nn(-c3cccc(Cl)c3)c3cc[se]c23)o1`
[A] > 100 µM

[Q] Please give the measured IC50 for this compound: `COC(=O)c1ccc(-c2nn(-c3ccc(Cl)cc3)c3cc[se]c23)o1`
[A] > 100 µM

[Q] Name the recorded IC50 for `COC(=O)c1ccc(-c2nn(-c3ccccc3F)c3cc[se]c23)o1` .
[A] > 100 µM

[Q] Requested field: IC50. Item: `COC(=O)c1ccc(-c2nn(-c3ccc(OC)cc3)c3cc[se]c23)o1`
[A] > 100 µM
